Hello, the source for this data is patent US20240360238A1, in case you need it.

Consider the following binders; for each one, report its IC50, killing of primary human CD34+CD90+ cells (5 days, flow cytometry counts).
target.under.test: CD117 on Kasumi-1 cells and primary human CD34+ bone marrow cells (human, UniProt P10721 26-976)
Sequence (P10721 26-976): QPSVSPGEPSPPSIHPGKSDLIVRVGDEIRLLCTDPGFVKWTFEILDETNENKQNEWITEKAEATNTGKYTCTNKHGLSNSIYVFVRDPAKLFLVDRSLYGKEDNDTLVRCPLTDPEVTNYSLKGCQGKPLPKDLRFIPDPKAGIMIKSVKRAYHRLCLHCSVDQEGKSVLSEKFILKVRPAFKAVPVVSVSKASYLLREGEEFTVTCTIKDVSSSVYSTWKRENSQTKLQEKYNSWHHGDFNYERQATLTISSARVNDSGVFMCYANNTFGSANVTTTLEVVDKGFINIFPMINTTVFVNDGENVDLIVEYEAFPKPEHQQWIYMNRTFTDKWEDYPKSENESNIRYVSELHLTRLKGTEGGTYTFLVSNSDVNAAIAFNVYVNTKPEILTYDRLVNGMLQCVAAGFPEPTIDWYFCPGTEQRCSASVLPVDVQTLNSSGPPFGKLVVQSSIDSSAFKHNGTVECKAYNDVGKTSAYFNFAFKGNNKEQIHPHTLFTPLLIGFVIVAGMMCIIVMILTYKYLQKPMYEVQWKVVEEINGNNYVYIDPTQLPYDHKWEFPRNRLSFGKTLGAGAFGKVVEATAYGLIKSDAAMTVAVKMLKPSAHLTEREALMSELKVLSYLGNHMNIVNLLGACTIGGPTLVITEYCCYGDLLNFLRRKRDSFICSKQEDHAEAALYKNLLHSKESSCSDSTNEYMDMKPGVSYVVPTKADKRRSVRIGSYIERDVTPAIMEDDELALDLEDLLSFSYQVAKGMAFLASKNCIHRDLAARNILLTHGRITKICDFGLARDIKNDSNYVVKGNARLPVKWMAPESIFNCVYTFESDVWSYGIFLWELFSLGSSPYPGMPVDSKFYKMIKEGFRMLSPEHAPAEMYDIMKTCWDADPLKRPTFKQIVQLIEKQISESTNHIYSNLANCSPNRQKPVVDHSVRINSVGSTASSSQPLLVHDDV
assay.notes: cell-based or functional assay
Give just the numeric value; pM need not be written.

## Task Name the recorded IC50, killing of primary human CD34+CD90+ cells (5 days, flow cytometry counts) of the binder listed here: HC-246/LC-246 anti-CD117-ADC (conjugated to an amatoxin) (antibody, V domains shown, antibody conjugated to an amatoxin; site not stated) VH: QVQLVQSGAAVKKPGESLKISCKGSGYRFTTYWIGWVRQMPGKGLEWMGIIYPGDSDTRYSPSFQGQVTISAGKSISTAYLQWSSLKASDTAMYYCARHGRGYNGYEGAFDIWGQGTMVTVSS VL: DIQMTQSPSSLSASVGDRVTITCRASQGIGSALAWYQQKPGKAPKLLIYDASTLESGVPSRFSGSGSGTDFTLTISSLQPEDFATYYCQQFNGYPLTFGQGTRLEIK
## Result 4.53

## Task For HC-249/LC-249 ADC (Ab249 conjugated to an amatoxin) (antibody, V domains shown, antibody conjugated to an amatoxin; site not stated) VH: EVQLVQSGAEVKKPGESLKISCKGSGYRFTTSWIGWVRQMPGKGLEWMGIIYPGDSDTRYSPSFQGQVTISADKSISTAYLQWSSLKASDTAMYYCARHGLGYNGYEGAFDIWGQGTLVTVSS VL: DIQMTQSPSSLSASVGDRVTITCRASQGIGSALAWYQQKPGKAPKLLIYDASNLETGVPSRFSGSGSGTDFTLTISSLQPEDFATYYCQQLNGYPLTFGQGTRLEIK , write its IC50, killing of primary human CD34+CD90+ cells (5 days, flow cytometry counts).
## Result 6.67

## Task Name the recorded IC50, killing of primary human CD34+CD90+ cells (5 days, flow cytometry counts) of the item CD117-ADC (anti-CD117 antibody CK6 conjugated to amatoxin) (antibody, V domains shown, antibody conjugated to an amatoxin; site and linker not stated for this assay) VH: QVQLVQSGAAVKKPGESLKISCKGSGYRFTSYWIGWVRQMPGKGLEWMGIIYPGDSDTRYSPSFQGQVTISAGKSISTAYLQWSSLKASDTAMYYCARHGRGYNGYEGAFDIWGQGTMVTVSS VL: AIQLTQSPSSLSASVGDRVTITCRASQGISSALAWYQQKPGKAPKLLIYDASSLESGVPSRFSGSGSGTDFTLTISSLQPEDFATYYCQQFNSYPLTFGGGTKVEIK in your answer.
## Result 9.77

## Task Give the value of IC50, killing of primary human CD34+CD90+ cells (5 days, flow cytometry counts) reported for the following: HC-81/LC-81 anti-CD117-ADC (conjugated to an amatoxin) (antibody, V domains shown, antibody conjugated to an amatoxin; site not stated) VH: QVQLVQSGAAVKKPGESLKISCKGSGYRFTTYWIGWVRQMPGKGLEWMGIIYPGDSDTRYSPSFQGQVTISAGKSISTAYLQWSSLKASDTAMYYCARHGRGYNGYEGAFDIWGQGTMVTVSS VL: DIQLTQSPSSLSASVGDRVTITCRASQGVISALAWYQQKPGKAPKLLIYDASTLESGVPSRFSGSGSGTDFTLTISSLQPEDFATYYCQQFNSYPLTFGGGTKVEIK
## Result 3.77
